Data credit: paper PMC3583018

target: UniProt P35462; assay: Saturation; conditions: hD3 in HEK cells, saturation binding, mean ± S.E.M n = 3
Sequence (P35462 whole entry): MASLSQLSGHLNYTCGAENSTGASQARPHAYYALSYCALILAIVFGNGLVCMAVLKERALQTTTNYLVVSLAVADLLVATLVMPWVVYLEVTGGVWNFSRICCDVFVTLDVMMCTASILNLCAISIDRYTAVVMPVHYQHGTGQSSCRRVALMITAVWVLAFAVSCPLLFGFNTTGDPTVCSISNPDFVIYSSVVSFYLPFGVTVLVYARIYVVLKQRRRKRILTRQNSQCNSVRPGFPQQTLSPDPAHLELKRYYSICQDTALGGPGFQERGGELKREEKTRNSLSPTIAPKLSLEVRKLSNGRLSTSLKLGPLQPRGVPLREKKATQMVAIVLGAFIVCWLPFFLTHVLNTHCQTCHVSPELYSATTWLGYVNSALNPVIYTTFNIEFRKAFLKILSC
measured-quantity: pKd
Bear in mind: pKd is minus log10 of a mol/L concentration; give just that figure.

Exercise: Would you mind telling me what pKd value was observed for CCN1CCC[C@H]1CNC(=O)c1c(O)c(Cl)cc(Cl)c1OC (racemic) [[^3H]raclopride, reference compound] ?
Solution: 7.74

----------
target: rat rD3 receptors (Rattus norvegicus, UniProt P19020); assay: Saturation; conditions: rD3 in Sf9 cells, saturation binding, mean ± S.E.M n = 3
Sequence (P19020 whole entry): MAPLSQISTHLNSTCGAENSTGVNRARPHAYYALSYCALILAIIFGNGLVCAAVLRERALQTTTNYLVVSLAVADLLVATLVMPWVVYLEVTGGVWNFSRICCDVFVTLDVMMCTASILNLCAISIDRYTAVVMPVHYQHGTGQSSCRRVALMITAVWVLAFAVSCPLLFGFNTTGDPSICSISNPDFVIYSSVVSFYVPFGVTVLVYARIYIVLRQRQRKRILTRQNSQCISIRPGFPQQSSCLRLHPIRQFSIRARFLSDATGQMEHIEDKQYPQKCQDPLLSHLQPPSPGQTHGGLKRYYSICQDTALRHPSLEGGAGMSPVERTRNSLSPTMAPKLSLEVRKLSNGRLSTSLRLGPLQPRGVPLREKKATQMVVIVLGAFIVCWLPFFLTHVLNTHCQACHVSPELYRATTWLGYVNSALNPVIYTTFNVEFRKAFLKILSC
measured-quantity: pKd
Bear in mind: pKd is minus log10 of a mol/L concentration; give just that figure.

Exercise: Would you mind telling me what pKd value was observed for CCN1CCC[C@H]1CNC(=O)c1c(O)c(Cl)cc(Cl)c1OC (racemic) [[^3H]raclopride, reference compound] ?
Solution: 7.77
